B1: mRNA-splicing (parent)
chain: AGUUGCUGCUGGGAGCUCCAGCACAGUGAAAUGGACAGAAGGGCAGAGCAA

Variants of: B1
Assay: exon inclusion enrichment index; higher = more inclusion; WT1 exon 5 minigene, HEK293
Threshold check on exon inclusion enrichment index: at or above 0.2 gives criterion met, strictly below gives criterion not met.

For orientation, consider the following solved cases.
>>> class("C18A C19G")
"criterion met"
>>> class("G5A U7C G8A U10C A30G A31U")
"criterion met"
>>> class("C6A U7A C9A U10A G11U G12A")
"criterion met"
>>> class("G5C C6A U7C G8A U10A C19G A20U")
"criterion not met"

**Q:** Does the variant G5A C6G U7G C9A C36G A37U have recorded exon inclusion enrichment index that is 0.2 or more?
**A:** criterion not met

**Q:** Continue with G5U G8U C9U A20C G21A
**A:** criterion not met

**Q:** Continue with G5A U7C G8A U10C U32C G33C
**A:** criterion met

**Q:** Continue with G5A U7C G8A U10C G21A C22A
**A:** criterion met

**Q:** Continue with G5A C6G U7G C9A U27A G28U
**A:** criterion not met

**Q:** Continue with G5C C6A U7C G8A U10A U32C G33U
**A:** criterion not met

**Q:** Continue with G5A C6U U7A G8U C9A A14C G15U
**A:** criterion not met

Numbers sourced from the RNAGym collection of RNA variant scans (doi:10.1101/gr.219683.116).
